Attribution: ChEMBL document CHEMBL4342418

test system: LNCaP; test: Antiproliferative activity against human LNCAP cells by MTT assay; type: functional, cell-based
MEASURED QUANTITY: IC50

>>> df
                              record_smiles       data_value
0  COC(=O)c1ccc(-c2cn(CC(=O)O[C@H]3c4cc5c(cc4[C@@H](c4cc(OC)c(OC)c(OC)c4)[C@H]4C(=O)OC[C@@H]43)OCO5)nn2)cc1  19.6 to 55.3 µM

###

system: HepG2; assay: Antiproliferative activity against human HepG2 cells by SRB assay; assay type: functional, cell-based
MEASURED QUANTITY: GI50

In [3]: df
Out[3]:
                                   molecule  system_tested       data_value
0   O=c1oc(-c2ccccc2)nn1Cc1cn(Cc2ccccc2)nn1          HepG2   820 to 2390 nM
1  COC(=O)Nc1nc2cc(C(=O)c3cccs3)ccc2[nH]1 [NOCODAZOLE]          HepG2      11 to 34 nM
2  Cc1ccc(-c2nn(Cc3cn(Cc4ccccc4F)nn3)c(=O)o2)cc1          HepG2   820 to 2390 nM
3  COc1ccc(/C=C/C(=O)c2cc(OC)c(OC)c(OC)c2)cc1OCc1cn(Cc2ccc(F)cc2)nn1          HepG2  1300 to 8200 nM
4  Cc1ccc(-c2nn(Cc3cn(Cc4ccccc4)nn3)c(=O)o2)cc1          HepG2   820 to 2390 nM
5  COc1ccc(/C=C/C(=O)c2cc(OC)c(OC)c(OC)c2)cc1OCc1cn(Cc2ccc(N)cc2)nn1          HepG2  1300 to 8200 nM
